The measurements presented in this section are drawn from patent US20160257732A1.

# system-name: HA of ca A/Brit. Columbia/CN-6/04 (H7N3-LP) (influenza A virus)
# experiment-description: cell-based or functional assay
reported-property: Neutralization IC50, H7-BC04 (µg/mL)
// note: answer is a bare numeric in µg/mL

Worked examples follow.
query: Name the reported Neutralization IC50, H7-BC04 value associated with the binder Antibody 12 (antibody, V domains shown) VH: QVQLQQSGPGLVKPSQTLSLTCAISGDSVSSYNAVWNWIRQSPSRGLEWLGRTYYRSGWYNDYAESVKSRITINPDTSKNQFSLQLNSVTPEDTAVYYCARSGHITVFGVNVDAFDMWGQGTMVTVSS VL: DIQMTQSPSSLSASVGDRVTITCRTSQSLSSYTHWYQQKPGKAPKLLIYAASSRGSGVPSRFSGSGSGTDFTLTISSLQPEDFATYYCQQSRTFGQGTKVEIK
result: 0.78

query: Continue with Antibody 3 (antibody, V domains shown) VH: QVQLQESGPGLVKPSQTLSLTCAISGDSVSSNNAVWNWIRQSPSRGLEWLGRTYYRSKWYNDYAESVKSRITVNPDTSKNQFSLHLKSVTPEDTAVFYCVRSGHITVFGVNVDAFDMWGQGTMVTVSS VL: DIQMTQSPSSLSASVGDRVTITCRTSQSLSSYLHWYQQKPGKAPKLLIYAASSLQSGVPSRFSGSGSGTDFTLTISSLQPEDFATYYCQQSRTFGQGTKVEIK
result: 2.95

Others:
query: Name the reported Neutralization IC50, H7-BC04 value associated with the binder Antibody 13 (antibody, V domains shown) VH: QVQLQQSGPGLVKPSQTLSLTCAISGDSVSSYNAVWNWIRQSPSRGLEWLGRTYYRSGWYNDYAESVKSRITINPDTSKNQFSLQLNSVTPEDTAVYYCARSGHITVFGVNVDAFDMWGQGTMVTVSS VL: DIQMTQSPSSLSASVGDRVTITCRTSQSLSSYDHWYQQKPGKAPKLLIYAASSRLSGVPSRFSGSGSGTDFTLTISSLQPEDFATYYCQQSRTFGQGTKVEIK
result: 0.96
